Tested on: HOP-92 NSCLC
Assay: NCI-60 one-dose screen, 48 h (100 = growth as untreated, 0 = no growth, -100 = all killed)
Settings: 10 µM unless noted
The panel holds about 83,000 compounds, 20% with a hit somewhere; the sample as a whole holds those more often. The source made the active and inactive calls. The calls were made as follows: active = growth percent below 10; inactive = the rest.
Reported growth values for the following compounds.

Examples with answers:
Compound	growth
CC1SC(c2ccc(N(C)C)cc2)N(NC(=O)C(O)(c2ccccc2)c2ccccc2)C1=O (centres undefined)	74.6% (inactive)
COc1ccc(-c2nc3ccc(-c4nc5ccc(N6CCN(c7ccncc7)CC6)cc5[nH]4)cc3[nH]2)cc1OC	57.8% (inactive)
CC(C)CC1C(=O)N2CCC[C@H]2C2(O)O[C@](NC(=O)C3C=C4c5cccc6[nH]c(Br)c(c56)C[C@H]4N(C)C3)(C(C)C)C(=O)N12 (some centres undefined)	66.1% (inactive)

Dear colleague, I am looking for the recorded growth of the following compound: C#Cc1cccc(NC(=O)c2ccccc2NC(=O)C=C)c1
92.8% [8.25 µM] (inactive)
